Source: patent US8367737B2

# Test system: Endothelial cells (HUVEC)
# EXPERIMENTAL DETAILS: Endothelial cell migration assay
# Type: cell-based
# CONDITION SUMMARY: Homo sapiens, 2 μM, read-out: Inhibition in Endothlial migration
Counter-ions that a name gives are not always drawn.
Reported inhibition at 2 µM by item:
Entry rule: numbers only, all in %.

• CN(C)CCCN1c2ccccc2CCc2ccc(Cl)cc21 [Clomipramine hydrochloride] = 58
• OCCN1CCN(CCCN2c3ccccc3Sc3ccc(Cl)cc32)CC1 [Perphenazine] = 43
• Cc1nc2sccn2c(=O)c1CCN1CCC(=C(c2ccc(F)cc2)c2ccc(F)cc2)CC1 [Ritanserin] = 55
• CC(C)(C)c1ccc(C(O)CCCN2CCC(C(O)(c3ccccc3)c3ccccc3)CC2)cc1 (stereo not drawn) [Terfenadine] = 34
• CCCCc1oc2ccccc2c1C(=O)c1cc(I)c(OCCN(CC)CC)c(I)c1 [Amiodarone hydrochloride] = 36

// next item, inhibition at 2 µM requested
Observed inhibition at 2 µM on Endothelial cells (HUVEC) for Oc1c(Cl)cc(Cl)cc1Sc1cc(Cl)cc(Cl)c1O [Bithionol] , please. 5

---

# Tested on: venous endothelia HUVEC
# EXPERIMENTAL DETAILS: Cell proliferation assay (CellTiter-Glo), venous endothelia
# Assay type: cell-based
# CONDITION SUMMARY: Homo sapiens, 72 hours of treatment, growth medium
Readings of IC50 for the listed compounds
// return numeric value only (unit: µM, not printed)

• OCCN1CCN(CCCN2c3ccccc3Sc3ccc(Cl)cc32)CC1 = 11.1
• Oc1c(Cl)cc(Cl)cc1Sc1cc(Cl)cc(Cl)c1O = 6

Record request: IC50 value, item Cc1nc2sccn2c(=O)c1CCN1CCC(=C(c2ccc(F)cc2)c2ccc(F)cc2)CC1 10.5

Using the record for CC(C)(C)c1ccc(C(O)CCCN2CCC(C(O)(c3ccccc3)c3ccccc3)CC2)cc1 (stereo not shown) , report its IC50. 5.5

---

# System: Endothelial cells (HUVEC)
# EXPERIMENTAL DETAILS: Endothelial tube formation assay
# Type: cell-based
# CONDITION SUMMARY: Homo sapiens, 2 μM, read-out: Inhibition in Endothlia Tube-Formation
Structures can show the parent of a compound that is named as a salt.
Label Not met if inhibition at 2 µM falls below 20%; label Met in every other case.

Here are 4 molecules together with their reported answers.
- CN(C)CCCN1c2ccccc2CCc2ccc(Cl)cc21 [Clomipramine hydrochloride]: Not met
- Cc1nc2sccn2c(=O)c1CCN1CCC(=C(c2ccc(F)cc2)c2ccc(F)cc2)CC1 [Ritanserin]: Not met
- OCCN1CCN(CCCN2c3ccccc3Sc3ccc(Cl)cc32)CC1 [Perphenazine]: Not met
- Oc1c(Cl)cc(Cl)cc1Sc1cc(Cl)cc(Cl)c1O [Bithionol]: Not met

Decide: inhibition at 2 µM of CCCCc1oc2ccccc2c1C(=O)c1cc(I)c(OCCN(CC)CC)c(I)c1 [Amiodarone hydrochloride] >= 20%? Met
